Target: UniProt Q96P20
Sequence (Q96P20 whole entry): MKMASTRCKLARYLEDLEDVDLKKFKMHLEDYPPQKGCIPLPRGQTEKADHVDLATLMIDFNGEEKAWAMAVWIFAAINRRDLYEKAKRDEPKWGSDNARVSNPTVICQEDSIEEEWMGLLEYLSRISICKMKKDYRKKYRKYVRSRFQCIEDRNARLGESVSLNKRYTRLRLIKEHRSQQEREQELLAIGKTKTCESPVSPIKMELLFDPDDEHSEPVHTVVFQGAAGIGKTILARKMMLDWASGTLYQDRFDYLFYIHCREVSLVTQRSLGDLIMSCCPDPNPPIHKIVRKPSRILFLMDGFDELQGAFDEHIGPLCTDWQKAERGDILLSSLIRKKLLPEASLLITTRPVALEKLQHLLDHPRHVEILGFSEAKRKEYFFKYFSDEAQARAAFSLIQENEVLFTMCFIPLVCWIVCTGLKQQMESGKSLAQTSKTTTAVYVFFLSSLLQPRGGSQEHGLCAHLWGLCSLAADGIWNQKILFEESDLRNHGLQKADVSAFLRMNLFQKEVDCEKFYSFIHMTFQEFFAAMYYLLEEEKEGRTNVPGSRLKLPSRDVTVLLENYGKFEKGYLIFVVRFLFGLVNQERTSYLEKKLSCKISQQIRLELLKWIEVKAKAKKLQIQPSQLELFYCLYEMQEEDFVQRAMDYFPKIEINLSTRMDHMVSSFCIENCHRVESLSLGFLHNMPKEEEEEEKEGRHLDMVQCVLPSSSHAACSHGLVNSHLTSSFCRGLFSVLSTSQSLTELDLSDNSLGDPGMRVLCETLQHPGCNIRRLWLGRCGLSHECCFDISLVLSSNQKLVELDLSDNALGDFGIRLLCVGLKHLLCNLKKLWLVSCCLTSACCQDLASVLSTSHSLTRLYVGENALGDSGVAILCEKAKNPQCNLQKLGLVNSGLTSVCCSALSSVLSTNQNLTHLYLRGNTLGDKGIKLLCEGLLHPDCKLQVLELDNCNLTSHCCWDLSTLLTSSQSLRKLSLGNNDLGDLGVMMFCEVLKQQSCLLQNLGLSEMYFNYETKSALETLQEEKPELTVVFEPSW
Assay: THP-1 cells pyroptosis assay (LPS + nigericin, resazurin read-out)
Format: cell-based
Conditions: 1 μg/ml LPS, 5 μM nigericin
Procedure: THP-1 cells (ATCC #TIB-202) were grown in RPMI containing L-glutamine (Gibco 15 #11835) supplemented with 1 mM sodium pyruvate (Sigma #S8636) and penicillin (100 units/ml)/streptomycin (0.1 mg/ml) (Sigma #P4333) in 10% Fetal Bovine Serum (FBS) (Sigma #F0804). […] The cells were then counted and viability (>90%) checked by Trypan blue (Sigma #T8154). […] The following method step-by-step assay was followed for compound screening. • 1. […] Plates were read in an Envision reader at Ex 560 nm and Em 590 nm • 9. […]
Where a name gives a salt, the structure may show the parent alone.
Listed here are compounds together with their documented IC50.
endpoint: IC50

INSERT INTO results (compound, val) VALUES
  ('CC(C)N1CCCC(S(=O)(=O)NC(=O)Nc2c3c(cc4c2CCC4)CCC3)C1 (stereo not shown) [Example 31, potassium salt]', '< 1000 nM'),
  ('CN(C)C(=O)N1CCC(S(=O)(=O)NC(=O)Nc2c3c(cc4c2CCC4)CCC3)CC1 [Example 61]', '1000 to 10000 nM'),
  ('CC(C)N1CC(S(=O)(=O)NC(=O)Nc2c3c(cc4c2CCC4)CCC3)C1 [Example 46, potassium salt]', '< 1000 nM'),
  ('O=C(Nc1c2c(cc3c1CCC3)CCC2)NS(=O)(=O)C1CCN(C2CC2)CC1 [Example 23, potassium salt]', '1000 to 10000 nM'),
  ('CC(C)c1cc(F)cc(-c2ccnc(C#N)c2)c1NC(=O)NS(=O)(=O)C1CN(C(C)C)C1 [Example 157]', '1000 to 10000 nM'),
  ('COc1cc(-c2cc(F)cc(C(C)C)c2NC(=O)NS(=O)(=O)c2ccc(=O)n(C(C)C)c2)ccn1 [Example 173]', '< 1000 nM'),
  ('C#CCN1CC(S(=O)(=O)NC(=O)Nc2c3c(cc4c2CCC4)CCC3)C1 [Example 133, potassium salt]', '< 1000 nM');
